- Tested on: Staphylococcus aureus
- test description: Antibacterial activity against Staphylococcus aureus measured after 24 hrs
- Format: functional
experimental readout: MIC (µg/mL)

Sample answers from the record:
COC(=O)[C@]1(C)CCC[C@]2(C)c3ccc(C(C)C)c(O)c3CC[C@@H]12; 50
COC(=O)[C@]1(C)CCC[C@]2(C)c3ccc(C(C)C)c(NC(=O)Cn4cc(COc5ccccc5)nn4)c3CC[C@@H]12; 50
COC(=O)[C@]1(C)CCC[C@]2(C)c3ccc(C(C)C)c(NC(=O)Cn4cc(-c5ccccc5OC)nn4)c3CC[C@@H]12; 75

1. COC(=O)c1cn(CC(=O)Nc2c(C(C)C)ccc3c2CC[C@H]2[C@](C)(C(=O)OC)CCC[C@]32C)nn1
2. COC(=O)[C@]1(C)CCC[C@@]2(C)[C@H]1CC=C1C=C(C(C)C)CC[C@@H]12 [METHYL ABIETATE]
3. COC(=O)[C@]1(C)CCC[C@]2(C)c3ccc(C(C)C)c(NC(=O)Cn4cc(-c5cccc(NC(C)=O)c5)nn4)c3CC[C@@H]12
// smallest MIC at index 0, largest at the end Please list the labels according to the requested order. 3, 2, 1
(3: 6.3 µg/mL, 2: 50 µg/mL, 1: 75 µg/mL)

// data source = ChEMBL document CHEMBL4177696
